Entry source: PubChem BioAssay AID1851

biological target: Cytochrome P450 3A4 (Homo sapiens) (UniProt P08684); assay: Cytochrome panel assay with activity outcomes; conditions: recombinant CYP, pro-luciferin dealkylation, luminescence, p450-cyp3a4; series mostly up to 57.1 µM; also: % is scaled to controls: 0 for no effect and ±100 for the full control effect
Sequence (P08684 whole entry, looked up): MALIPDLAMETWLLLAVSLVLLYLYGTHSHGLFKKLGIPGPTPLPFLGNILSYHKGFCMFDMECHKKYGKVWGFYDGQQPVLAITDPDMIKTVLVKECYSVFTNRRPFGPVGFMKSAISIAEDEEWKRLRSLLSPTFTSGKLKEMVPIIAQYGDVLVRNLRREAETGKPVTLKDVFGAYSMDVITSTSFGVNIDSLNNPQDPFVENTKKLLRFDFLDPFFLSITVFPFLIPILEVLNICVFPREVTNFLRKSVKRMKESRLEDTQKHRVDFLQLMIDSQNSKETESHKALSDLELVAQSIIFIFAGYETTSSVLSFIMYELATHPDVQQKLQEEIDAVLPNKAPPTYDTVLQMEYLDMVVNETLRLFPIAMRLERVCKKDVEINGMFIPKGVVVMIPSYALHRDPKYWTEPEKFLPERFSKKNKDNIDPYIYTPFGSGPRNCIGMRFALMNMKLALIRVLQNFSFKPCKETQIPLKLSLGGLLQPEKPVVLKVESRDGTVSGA
Screen size: about 16,000 compounds; about 5,100 (32%) were called active. About 25% were inconclusive and are not listed. The list shows a part of the results.
Please provide measured activity, negative = inhibition for the entries that follow.

q: Quick check: activity, negative = inhibition of `Nc1nccc(Nc2ccc(S(N)(=O)=O)cc2)n1` ?
a: -5.22% [at 11.4 µM] (inactive)

q: Queued: `CCN(/C=N/c1sc2c(c1C#N)CCCCC2)CC`
a: -17.6% [at 2.29 µM] (inactive)

q: Queued: `CC(=O)CSc1nnc(Cc2ccc([N+](=O)[O-])cc2)o1`
a: 7.56% [at 2.29 µM] (inactive)

q: Queued: `CCCCCCCCn1cc(C(C)=O)c(=O)[nH]c1=O`
a: -12.5% [at 2.29 µM] (inactive)
